Assign speed of sound to each entry below.
# conditionSet: 313.15 K; 101 kPa; Liquid; Linear variable-path acoustic interferometer
± gives the expanded uncertainty stated by the source.

Value lookup for speed of sound; key = C=CC(=O)OC [methyl propenoate]
1117.8 ± 1.7 m/s

Try the molecule CCCCCCCCO
1298.9 ± 1.9 m/s

Try the molecule CCCCCCCCCCO
1326.7 ± 2 m/s

Try the molecule CCCCCCO
1256.3 ± 1.9 m/s

Try the molecule CCCCO
1189.2 ± 1.8 m/s

* * *

# conditionSet: 288.15 K; 101 kPa; Liquid; Linear variable-path acoustic interferometer
readoutKind: speed of sound (m/s)
Respond numerically; units are m/s and should not be typed.

Value lookup for speed of sound; key = CCCCO [butan-1-ol]
1282.2

Try the compound CCCCCCO [hexan-1-ol]
1339.2

Try the compound CCCCCCCCO [octan-1-ol]
1390.2

Try the compound C=CC(=O)OC [methyl propenoate]
1226.6

Try the compound CCCCCCCCCCO [decan-1-ol]
1410.6

* * *

# conditionSet: 293.15 K; 101 kPa; Liquid; Linear variable-path acoustic interferometer
readoutKind: speed of sound (m/s)
Respond numerically; units are m/s and should not be typed.

Value lookup for speed of sound; key = C=CC(=O)OC [methyl propenoate]
1204.6

Try the compound CCCCCCCCCCO
1393.6

Try the compound CCCCCCCCO
1371.5

Try the compound CCCCO
1262.4

Try the compound CCCCCCO
1321.2

* * *

# conditionSet: 298.15 K; 101 kPa; Liquid; Linear variable-path acoustic interferometer
readoutKind: speed of sound (m/s)
Respond numerically; units are m/s and should not be typed.

Value lookup for speed of sound; key = CCCCCCO [hexan-1-ol]
1306.9

Try the compound CCCCCCCCO [octan-1-ol]
1352.4

Try the compound CCCCCCCCCCO [decan-1-ol]
1377.3

Try the compound C=CC(=O)OC [methyl propenoate]
1183.6

Try the compound CCCCO [butan-1-ol]
1242.6

* * *

# conditionSet: 308.15 K; 101 kPa; Liquid; Linear variable-path acoustic interferometer
Numbers after ± are expanded uncertainties.
readoutKind: speed of sound
Output should be the measured figure followed by the unit it is expressed in.

Value lookup for speed of sound; key = CCCCCCO
1275.7 ± 1.9 m/s

Try the compound C=CC(=O)OC [methyl propenoate]
1139.1 ± 1.7 m/s

Try the compound CCCCO
1207.6 ± 1.8 m/s

Try the compound CCCCCCCCO
1315.7 ± 2 m/s

Try the compound CCCCCCCCCCO
1345.7 ± 2 m/s

* * *

Assign speed of sound to each entry below.
# conditionSet: 303.15 K; 101 kPa; Liquid; Linear variable-path acoustic interferometer
Respond numerically; units are m/s and should not be typed.

Value lookup for speed of sound; key = C=CC(=O)OC [methyl propenoate]
1162.2

Try the compound CCCCCCCCCCO
1359.8

Try the compound CCCCCCCCO
1333.1

Try the compound CCCCO
1225.8

Try the compound CCCCCCO
1289.5

* * *

# conditionSet: 318.15 K; 101 kPa; Liquid; Linear variable-path acoustic interferometer
readoutKind: speed of sound (m/s)
Respond numerically; units are m/s and should not be typed.

Value lookup for speed of sound; key = CCCCO [butan-1-ol]
1170

Try the compound CCCCCCCCCCO [decan-1-ol]
1312.1

Try the compound CCCCCCO [hexan-1-ol]
1237.5

Try the compound CCCCCCCCO [octan-1-ol]
1282.9

Try the compound C=CC(=O)OC [methyl propenoate]
1095.7
